Origin of the recorded values: ChEMBL document CHEMBL4359815

Tested on: HCT-116
Test: Antiproliferative activity against human HCT116 cells assessed as reduction in cell viability after 48 hrs by MTT assay
Assay type: functional, cell-based
Details: HCT-116, 48 h
pIC50: −log10 of the molar value.
Endpoint: pIC50

> print(dat)
                                smiles.data  result.value
1  CCn1c(=O)n(-c2cc(OC)c(OC)c(OC)c2)c2cc(-c3ccc(OC)c(O)c3)ncc21        < 4.70
2  COc1ccc(-c2cc3c(cn2)n(C2CC2)c(=O)n3-c2cc(OC)c(OC)c(OC)c2)cc1O        < 4.70
3  COc1ccc(-c2cncc3[nH]c(=O)n(-c4cc(OC)c(OC)c(OC)c4)c23)cc1        < 4.70
4  COc1ccc(-n2c(=O)[nH]c3cnc(-c4cc(OC)c(OC)c(OC)c4)cc32)cc1O        < 4.70
5  COc1ccc(-c2cncc3[nH]c(=O)n(Cc4cc(OC)c(OC)c(OC)c4)c23)cc1O        < 4.70
6  COc1ccc(-c2nc3cnccc3n2-c2cc(OC)c(OC)c(OC)c2)cc1O        < 4.70
7  COc1ccc(-c2cncc3[nH]c(=O)n(Cc4cc(OC)c(OC)c(OC)c4)c23)cc1        < 4.70
8  COc1ccc(-c2cncc3[nH]c(=O)n(-c4cc(OC)c(OC)c(OC)c4)c23)cc1O        < 4.70
